- testTarget: Acetylcholinesterase (Homo sapiens)
- Sequence (P22303 whole entry): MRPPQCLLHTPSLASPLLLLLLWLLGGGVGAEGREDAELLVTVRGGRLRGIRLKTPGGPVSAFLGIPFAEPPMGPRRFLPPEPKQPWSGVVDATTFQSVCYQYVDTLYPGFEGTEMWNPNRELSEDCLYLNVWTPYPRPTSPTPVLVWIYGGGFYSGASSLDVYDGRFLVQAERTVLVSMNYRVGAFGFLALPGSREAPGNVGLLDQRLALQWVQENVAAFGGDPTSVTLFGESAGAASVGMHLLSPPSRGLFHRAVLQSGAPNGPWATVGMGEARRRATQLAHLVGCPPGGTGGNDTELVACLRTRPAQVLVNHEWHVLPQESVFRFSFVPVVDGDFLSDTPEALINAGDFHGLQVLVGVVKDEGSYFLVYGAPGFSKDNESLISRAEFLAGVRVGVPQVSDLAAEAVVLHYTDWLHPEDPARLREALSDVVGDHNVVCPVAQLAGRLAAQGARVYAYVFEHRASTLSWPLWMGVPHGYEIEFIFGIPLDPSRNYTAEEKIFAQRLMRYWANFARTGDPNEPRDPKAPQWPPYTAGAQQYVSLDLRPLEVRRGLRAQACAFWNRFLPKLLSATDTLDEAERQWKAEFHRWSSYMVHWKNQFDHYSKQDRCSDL
- methodNotes: Inhibition of human recombinant AChE preincubated for 20 mins before substrate addition by Ellman's method
pIC50: −log10 of the molar value.
Recorded pIC50 values for a group of molecules are listed next.
parameter: pIC50

lineNotation	readoutValue
CCN(CC)CCCCOc1ccc2c(c1)C(=O)/C(=C/c1ccc(CN(C)Cc3ccccc3)cc1)C2	6.05
CN(Cc1ccccc1)Cc1ccc(/C=C2\Cc3ccccc3C2=O)cc1	4.93
CCN(CC)CCCCOc1ccc2c(c1)C/C(=C\c1ccc(CN(C)Cc3ccccc3)cc1)C2=O	5.40
CN(Cc1ccccc1)Cc1ccc(/C=C2\Cc3ccc(OCCCCCN4CCCCC4)cc3C2=O)cc1	6.70
CCN(CC)CCCCCCCOc1ccc2c(c1)C(=O)/C(=C/c1ccc(CN(C)Cc3ccccc3)cc1)C2	6.29
CCN(Cc1ccccc1)Cc1ccc(/C=C2\Cc3ccc(OC)cc3C2=O)cc1	5.31
CCN(CC)CCCOc1ccc2c(c1)C/C(=C\c1ccc(CN(C)Cc3ccccc3)cc1)C2=O	5.79
COc1ccc2c(c1)CC/C(=C\c1ccc(CN(C)Cc3ccccc3)cc1)C2=O	6.96
CCN(CC)CCOc1ccc2c(c1)C(=O)/C(=C/c1ccc(CN(C)Cc3ccccc3)cc1)C2	5.82
CN(Cc1ccccc1)Cc1ccc(/C=C2\CCc3cc(OCCCCCN4CCCCC4)ccc3C2=O)cc1	7.28

---

- methodNotes: Inhibition of amyloid beta (1-42) self-aggregation at 10 uM after 24 hrs by thioflavin T-based fluorometric assay
Recorded inhibition values for a group of compounds are listed next.
parameter: inhibition

compound	readoutValue
COc1cc2cc(-c3ccc(CN(C)Cc4ccccc4)cc3)c(=O)oc2cc1OC	< 5%
COc1ccc2c(c1)C(=O)/C(=C/c1ccc(CN(C)Cc3ccccc3)cc1)C2	< 5%
COc1cc2c(cc1OC)C(=O)C(CC1CCN(Cc3ccccc3)CC1)C2 (stereo not drawn)	< 5%

---

- Organism: Homo sapiens
- methodNotes: Selectivity ratio of IC50 for human BuChE to human recombinant AChE
Recorded Ratio IC50 values for a group of molecules are listed next.

lineNotation	Ratio IC50
CCN(CC)CCCCCOc1ccc2c(c1)C(=O)/C(=C/c1ccc(CN(C)Cc3ccccc3)cc1)C2	14.2
CN(Cc1ccccc1)Cc1ccc(/C=C2\CCc3cc(OCCCCCN4CCCCC4)ccc3C2=O)cc1	96.3
CCN(CC)CCCCOc1ccc2c(c1)C(=O)/C(=C/c1ccc(CN(C)Cc3ccccc3)cc1)C2	3.95
COc1ccc2c(c1)CC/C(=C\c1ccc(CN(C)Cc3ccccc3)cc1)C2=O	820
CCN(CC)CCOc1ccc2c(c1)C/C(=C\c1ccc(CN(C)Cc3ccccc3)cc1)C2=O	7.76
CCN(CC)CCCOc1ccc2c(c1)C/C(=C\c1ccc(CN(C)Cc3ccccc3)cc1)C2=O	7.08
CN(Cc1ccccc1)Cc1ccc(/C=C2\Cc3ccc(OCCCCN4CCCCC4)cc3C2=O)cc1	55.5
COc1ccc2c(c1)C/C(=C\c1ccc(CN(C)Cc3ccccc3)cc1)C2=O	0.73
CN(Cc1ccccc1)Cc1ccc(/C=C2\Cc3ccccc3C2=O)cc1	2.55
CCN(CC)CCCOc1ccc2c(c1)C(=O)/C(=C/c1ccc(CN(C)Cc3ccccc3)cc1)C2	9.01
COc1cc2cc(-c3ccc(CN(C)Cc4ccccc4)cc3)c(=O)oc2cc1OC	1110
CCN(CC)CCCCCOc1ccc2c(c1)CC/C(=C\c1ccc(CN(C)Cc3ccccc3)cc1)C2=O	144
COc1ccc2c(c1)C(=O)/C(=C/c1ccc(CN(C)Cc3ccccc3)cc1)CC2	25.1

Origin of measurements: ChEMBL document CHEMBL1157624
